Origin of the recorded values: ChEMBL document CHEMBL4043120

Field: inhibition. Provide a value for each of the compounds that follow.
Molecular target: Histone-lysine N-methyltransferase EHMT2 (Homo sapiens)
Assay: Inhibition of EHMT2 (unknown origin) at 400 uM preincubated for 15 mins followed by SAM and biotinylated H3K9 peptide addition measured after 30 mins by TR-FRET assay relative to control
One number for each entry, in %.

Worked examples follow.
molecule=Nc1ncnc2c1ncn2[C@@H]1O[C@H](C[C@H](N)CCC2CCCCC2)[C@@H](O)[C@H]1O experimental_readout=inhibition scale_unit=% observed=47.8
molecule=CN(CC1CCCCC1)C[C@H]1O[C@@H](n2cnc3c(N)ncnc32)[C@H](O)[C@@H]1O experimental_readout=inhibition scale_unit=% observed=31.9
molecule=Nc1ncnc2c1ncn2[C@@H]1O[C@H](C[C@@H](N)CC2CCCC2)[C@@H](O)[C@H]1O experimental_readout=inhibition scale_unit=% observed=55.3
molecule=Nc1ncnc2c1ncn2[C@@H]1O[C@H](C[C@H](N)CC2CCC2)[C@@H](O)[C@H]1O experimental_readout=inhibition scale_unit=% observed=44
molecule=Nc1ncnc2c1ncn2[C@@H]1O[C@H](C[C@@H](N)CC[C@H](N)C(=O)O)[C@@H](O)[C@H]1O experimental_readout=inhibition scale_unit=% observed=79.5
molecule=Nc1ncnc2c1ncn2[C@@H]1O[C@H](C[C@@H](N)CCC2CCCCC2)[C@@H](O)[C@H]1O experimental_readout=inhibition scale_unit=% observed=42.7
molecule=Nc1ncnc2c1ncn2[C@@H]1O[C@H](C[C@@H](N)CC2CCC2)[C@@H](O)[C@H]1O experimental_readout=inhibition scale_unit=% observed=58.9

Switching to the query record.
Task: Missing value: inhibition, Histone-lysine N-methyltransferase EHMT2 (Homo sapiens), entry Nc1ncnc2c1ncn2[C@@H]1O[C@H](C[C@H](N)CC2CCCC2)[C@@H](O)[C@H]1O . Fill in?
Result: 43.6
